- System: CEM cells HIV-1 protection, formazan growth assay
- measurement.notes: NCI AIDS Antiviral Assay
- protocol.conditions: measured here: growth of uninfected CEM cells
I'd be grateful if you could share measured IC50 for these entries.
Numbers only, in µM.

Answered examples (4):
COc1c(C)c(C/C=C(\C)CC/C=C(\C)CC/C=C(\C)CCC=C(C)C)c(OC)c2ccccc12 = 107
c1csc(-c2cscc2-c2cccs2)c1 = 37.2
CC(=O)c1c2c(cc3c1CC1(C3)Cc3cc4c(c(C(=O)O)c3C1)CCCC4)CCCC2 (stereo unspecified) (tested in a mixture with another compound) = 38.9
CCC(=O)[O][Bi]([c]1ccccc1)[c]1ccccc1 = 5.89

Working through the 4 compounds below one at a time, give IC50 for each.
1. CCN(CC)C1C(=O)NC1C#Cc1ccccc1 (stereo unspecified)
2. C[C@@]12c3ccc4c(c3C(=O)c3occ(c31)[C@@H](O)C[C@H]2O)CCC4=O
3. NC(=S)N/N=C/c1cn(CCCl)c2ccccc12
4. C=C=C(CCC(=O)c1ccccc1)S(=O)(=O)c1ccccc1

OUT:
1: 85.1; 2: 17.4; 3: 15.8; 4: 11

Working through the 5 compounds below one at a time, give IC50 for each.
1. CC1=CCC(Br)C(C)(C)C12CCC(C)(Cl)C(Br)C2 (stereo unspecified)
2. CN(C)c1ccc(/C=C(\C#N)c2cccc(I)c2)cc1
3. Cn1c(=O)c2c(nc(N/N=c3\scc(-c4ccc(Cl)cc4)n3Cc3ccccc3)n2C)n(C)c1=O
4. C[C@@H]1[C@@H](C)C(c2ccccc2)O[Si]1(C(C)(C)C)C(C)(C)C (stereo partly specified)
5. CCOC(=O)c1ccc(Nc2cnc3ccc(C(F)(F)F)cc3n2)cc1

OUT:
1. 29.5
2. 0.129
3. 10.7
4. 56.2
5. 10.7
